Values compiled from PubChem BioAssay (NCATS).

- assay-remarks: qHTS profiling for inhibitors of Plasmodium falciparum (DD2) proliferation (AID 743323)
- experimental-context: lower = more inhibition; at 28.7 µM (top of the series) unless noted
Assign labels as follows, please: TRUE for activity, percent of control below 80%; FALSE for activity, percent of control equal to or exceeding 80%.

Input `CCC(=O)N[C@H]1CC[C@H](C(=O)N(C)c2ccc(-c3nc4ccccc4o3)cc2)C1` ; condition: activity, percent of control strictly below 80%. Does it hold?
TRUE

For this compound, is activity, percent of control lower than 80%? `COc1ccc(C2=N[C@H](c3ccc(Cl)cc3)[C@H](c3ccc(Cl)cc3)N2C(=O)N2CCNC(=O)C2)c(OC(C)C)c1`
TRUE

Does the reported activity, percent of control of the following compound sit strictly below 80%? `C[C@]1(c2nc3c(C(N)=O)cccc3[nH]2)CCCN1`
FALSE

# strict comparison: is reported activity, percent of control < 80%? input = `COc1ccccc1-c1cccc(-c2c(O)c3cc(C#N)c(Cl)cc3[nH]c2=O)c1`
TRUE

Item `O=C(NOC[C@H](O)CO)c1ccc(F)c(F)c1Nc1ccc(I)cc1F` : activity, percent of control beneath 80%, strictly?
FALSE

Threshold test, activity, percent of control < 80%: `CN(C)C(=O)c1ccc(S(=O)(=O)c2ccc(NC(=O)[C@@](C)(O)C(F)(F)F)c(Cl)c2)cc1`
FALSE
